test: anti-His antibody binders, primary screen, artefact control for SMM control protein annotation, biochemical, small-molecule microarray, 635 nm fluorescence (AID 1128); settings: anti-His Alexa647 antibody binding, higher = more signal;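 also: score merges feature fluorescence with signal-to-noise for each printed compound spot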
OBSERVED_PROPERTY: composite z-score
Lab note: jot down the number only; don't add units.

Consider the reported composite z-score for these compounds:
C=C1C2CC3C(=C4C(CO[C@@H]4[C@H]4CCCN4S(=O)(=O)c4ccccc4[N+](=O)[O-])C4C(=O)N(C)C(=O)C34)CC2C(=O)N1C (some centres not stated)	-0.382
COCCOC(=O)N1C(=O)[C@@]2(c3ccccc31)[C@H](c1ccc(OCCO)cc1)N1[C@H](c3ccccc3)[C@H](c3ccccc3)OC(=O)[C@H]1[C@@H]2C(=O)Nc1nc2ccccc2s1	1.6
CCOC(=O)C[C@H]1[C@H](OC(=O)c2ccc(C(=O)c3ccccc3)cc2)[C@@H](NC(=O)c2ccc3ccccc3c2)c2cc(OCCCO)ccc2N1C(=O)c1ccccc1	0.405
COC(=O)C1(Cc2ccccc2)C=C2C(=C(c3ccccc3)C(=O)C2C)CN1 (configuration not stated)	1.76

State its composite z-score: COCCCNC(=O)[C@@]1(Sc2ccc(C)cc2)CC(=O)N(Cc2cc(C(F)(F)F)cc(C(F)(F)F)c2)[C@@H]1c1ccc(CO)cc1
1.79

Provide measured composite z-score value, entry: CCCCC(CC)C(O)C1C=CC2C(=O)N(c3ccccc3)C(=O)C2N1Nc1ccc([N+](=O)[O-])cc1 (configuration not stated)
1.48

Could you please provide reported composite z-score for CCOC(=O)C[C@H]1[C@H](OC(=O)Cc2ccc3c(c2)OCO3)[C@@H](NC(=O)Cc2ccc(OC)cc2)c2cc(OCCCO)ccc2N1C(=O)c1ccccc1 ? Thanks!
0.0506

---

test: modulators of HCV replicon luciferase signal, primary screen, HCV replication inhibitor project, Huh7 cells, luciferase reporter (AID 1109); conditions: 48 h, higher = more signal;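 also: huh7 hepatoma cells harbouring a luciferase neomycin HCV replicon reporter; luciferase luminescence as measure of HCV replicon replication; test concentration not given here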
OBSERVED_PROPERTY: z-score
Answer as a number with no unit attached.

These recorded examples may help you get a feel for the data.
COC(=O)[C@@]1(Cc2ccccc2)[C@H]2c3cc(C(=O)N4CCCC4)n(C[C@H](O)CO)c3C[C@H]2CN1C(=O)c1ccccc1	-0.925
CC=CC(O)C1C=CC2C(=O)N(c3ccccc3)C(=O)C2N1Nc1ccc([N+](=O)[O-])cc1 (configuration not stated)	0.0112
CC(=O)n1cc(C(O)C2C=CC3C(=O)N(Cc4ccccc4)C(=O)C3N2n2cnnc2)c2ccccc21 (configuration not stated)	-1.49

Please give the documented z-score of COCCOC(=O)N1C(=O)[C@@]2(c3cc(C#CC4(O)CCCCCC4)ccc31)[C@H](C(N)=O)[C@H]1C(=O)O[C@H](c3ccccc3)[C@H](c3ccccc3)N1[C@@H]2c1ccc(O)cc1
-1.39

Quick one: give measured z-score for COC(=O)C1(Cc2ccccc2)C=C2C(=C(c3ccccc3)C(=O)C2C)CN1 (configuration not stated)
-1.53

Identify the reported z-score for the following entry. CCN(CC)c1ccc(N2CC=CC34O[C@@H]5/C=C\CCC(C)OC(=O)C5[C@H]3C(=O)N(CCO)[C@@H]4C2=O)cc1 (some centres not stated)
-1.35

Please look at this compound and report its z-score: C=CC[C@@]1(C(=O)O)N=C(c2ccc(OCCCO)cc2)O[C@@H]1c1ccccc1
0.0165
